Data credit: ChEMBL document CHEMBL5303304

# System: U2OS
# assay overview: Incucyte cell viability with U2OS; note: unitless GR value; below 1 slowed growth and below 0 cell loss
# Format: toxicity, cell-based
# condition set: human, 12 h, 10 µM, compound concentration 10 uM, replicate number 2
readout label: Growth Rate
Enter the number alone.

INSERT INTO measurements (compound, tested_target, reported_value) VALUES
  ('C[C@H](CCC(=O)[O-])[C@H]1CC[C@H]2[C@@H]3[C@@H](O)C[C@@H]4C[C@H](O)CC[C@]4(C)[C@H]3CC[C@]12C.[Na+]', 'U2OS', 1),
  ('O=C(O)CCCCCC[C@@H]1C(=O)NC(=O)N1CCC(O)C1CCCCC1 (some centres undefined)', 'U2OS', 0.93);

Fill blank: measured Growth Rate of the compound COc1cc(Oc2nc(-c3ccc(NC(=O)C4CCOC4)cc3)nn3c(C)nc(C)c23)cc(OC)c1OC (centres undefined) is ____. 0.94

And then Cc1nnsc1C(=O)Nc1ccc(-n2nc(C(F)(F)F)cc2C(F)(F)F)cc1 , what is it? 0.42

---

Entries and their Growth Rate values follow.
# Tested on: U2OS
# assay overview: Incucyte cell viability with U2OS; note: unitless GR value; below 1 slowed growth and below 0 cell loss
# Format: toxicity, cell-based
# condition set: human, 24 h, 10 µM, compound concentration 10 uM, replicate number 1

// solved cases for Growth Rate follow
INSERT INTO results (molecule, reported_value) VALUES
  ('COC(=O)c1cc2c(cn1)[nH]c1ccccc12 [BETA-CCM]', 0.98),
  ('CC(C)(C)c1ccc(-c2coc3ccc(-c4cn[nH]c4)nc23)cc1', 0.5),
  ('CCn1cnc2c(-c3ccc(F)c(-c4ccc(S(=O)(=O)CC)cc4OC)c3)cnnc21 [DARIGABAT]', 0.01),
  ('CN1CCN(c2ccc(C(=O)Nc3n[nH]c4ccc(Cc5cc(F)cc(F)c5)cc34)c(NC3CCOCC3)c2)CC1 [ENTRECTINIB]', -0.66);

Kindly review the next molecule as well.
Item COc1ccc(CC(=O)NCc2ccccc2-c2ccccc2C(=O)NCc2ccc(F)cc2F)cc1 has what recorded Growth Rate? 0.89

---

# System: HEK-293T
# assay overview: Incucyte cell viability with HEK293T; note: unitless GR value; below 1 slowed growth and below 0 cell loss
# Type: toxicity, cell-based
# condition set: human, 12 h, 10 µM, compound concentration 10 uM, replicate number 1
Parameter Growth Rate: see the listing below.
The answer should be a number; do not append a unit.

Study these solved cases before continuing.
INSERT INTO results (entry_smiles, tested_target, readout_label, reported_value) VALUES
  ('C[C@]12CC[C@@H]3c4ccc(O)cc4CC[C@H]3[C@@H]1C[C@H]1OC(=O)C[C@]12O', 'HEK-293T', 'Growth Rate', 0.37),
  ('CC[C@H](Nc1c(C#N)c(-c2ccc(-c3cccc(C)c3F)cc2)nc2cnccc12)C(=O)O', 'HEK-293T', 'Growth Rate', 0.79),
  ('CCCCNc1ncc2c(-c3ccc(CN4CCN(C)CC4)cc3)cn([C@H]3CC[C@H](O)CC3)c2n1', 'HEK-293T', 'Growth Rate', -0.54);

Now look at this one.
Quick one: Growth Rate of CN(C)C/C=C/C(=O)Nc1cccc(C(=O)Nc2ccc(Nc3nccc(-c4cccnc4)n3)cc2)c1 ? -0.9

---

# Test system: Fibroblast
# assay overview: Incucyte cell viability with human fibroblast; note: unitless GR value; below 1 slowed growth and below 0 cell loss
# Format: toxicity, cell-based
# condition set: 18 h, 10 µM, compound concentration 10 uM, replicate number 1
We begin with a simple list: items and their reported Growth Rate.
Hey, just send me the number, nothing else.

INSERT INTO measurements (compound, tested_target, reported_value) VALUES
  ('COc1cc(-c2cn(C)c(=O)c3cnccc23)c(OC)cc1CN(C)C', 'Fibroblast', 0.8);

Please report the recorded Growth Rate for CCOc1ccccc1C(=O)NCC1(N2CCN(CC)CC2)CCCCC1 . -0.25

And then COc1cc(F)ccc1-c1ncnc(Nc2cccc(C[S@](C)(=N)=O)c2)n1 , what is it? -0.01
